The reported numbers originate from paper PMC12903857.

assay_target: 14-3-3σ (Homo sapiens)
measurement_notes: Intact mass spectrometry assay, apo (no peptide)
Format: binding
Design: full-length for mass spectrometry and fluorescence anisotropy assays; made in house; host or cells: E. coli Rosetta 2(DE3)pLysS, pPROEX HTb vector
applied_conditions: 1 μM compound, 100 nM 14-3-3σ, 16 h
reported_metric: % bound, APO, 16h (%)

# example entries with known answers
compound="O=C(C(Cl)Cl)N1CC2(CCN(S(=O)(=O)c3ccc(Br)c(F)c3)CC2(F)F)C1 [Compound 74]" result=0
compound="O=C(CCl)NCC1CCN(S(=O)(=O)c2ccc(Cl)nc2)CC1 [Compound 14]" result=3
compound="O=C(CCl)NCC1CCN(S(=O)(=O)c2ccc(F)cc2F)CC1 [Compound 27]" result=3.8
compound="O=C(CCl)NCC1CCN(S(=O)(=O)c2ccc(F)cc2)CC1 [Compound 11]" result=4.7

(A) O=C(CCl)N1CC2CCC1CC2NS(=O)(=O)c1ccc(Br)c(F)c1 (stereo not drawn) [Compound 61]
(B) CC1(CNC(=O)CCl)CCN(S(=O)(=O)c2ccc(Br)c(F)c2)CC1 [Compound 46]
(C) C=C(F)C(=O)N1CC2(CCN(S(=O)(=O)c3ccc(Br)c(F)c3)CC2(F)F)C1 [Compound 75]
(D) O=C(CCl)NCC1CCN(S(=O)(=O)c2cc(F)c(Br)c(F)c2)CC1 [Compound 40]
(E) O=C(CCl)N1CC2(CC(NS(=O)(=O)c3ccc(Br)c(F)c3)C2)C1 [Compound 64]
Query: Task for the reader: rank each entry by its % bound, APO, 16h, from the minimum upward. Kindly provide the labels arranged according to the requested ordering.
Result: C, D, B, A, E

----------
assay_target: 14-3-3σ/C-RAF259 (Homo sapiens, UniProt P31947)
measurement_notes: Intact mass spectrometry assay with C-RAF259 phospho-peptide
Type: binding
Set-up: full-length for mass spectrometry and fluorescence anisotropy assays; made in house; host or cells: E. coli Rosetta 2(DE3)pLysS (14-3-3σ); peptides from Elim Biopharmaceuticals
applied_conditions: 1 μM compound, 100 nM 14-3-3σ, 18 µM peptide, 16 h
reported_metric: % bound, C-RAF259 (11mer), 16h (%)

# example entries with known answers
compound=O=C(CCl)N1CC[C@]2(CCN(S(=O)(=O)c3ccc(Br)c(F)c3)C2)C1 result=82
compound=O=C(CCl)NCc1ccc(NS(=O)(=O)c2ccc(Br)c(F)c2)cc1 result=12.1
compound="O=C(CCl)N1CC2(CC(NS(=O)(=O)c3ccc(Br)c(F)c3)CO2)C1 (stereo not drawn)" result=55.6
compound=O=C(CCl)N1CC2(CC(NS(=O)(=O)c3ccc(Br)c(F)c3)C2)C1 result=79
compound=O=C(CCl)NCC1CCN(S(=O)(=O)C2CC3(C2)CC(F)(F)C3)CC1 result=0
compound=O=C(CCl)NC1CC2(CCN(S(=O)(=O)c3ccc(Br)c(F)c3)CC2)C1 result=20.6
compound="O=C(CCl)N1CC2CC1CN2S(=O)(=O)c1ccc(Br)c(F)c1 (stereo not drawn)" result=71.2

(P) O=C(CCl)NCCCC1CCN(S(=O)(=O)c2ccc(Cl)cc2)CC1
(Q) O=C(CCl)NCC1CCN(S(=O)(=O)c2ccc(F)cc2F)CC1
Query: # returns the entry with the larger % bound, C-RAF259 (11mer), 16h; inputs P and Q Kindly give the label for the entry you pick.
Result: Q

----------
assay_target: 14-3-3σ (Homo sapiens)
measurement_notes: Intact mass spectrometry assay, apo (no peptide)
Format: binding
Design: full-length for mass spectrometry and fluorescence anisotropy assays; made in house; host or cells: E. coli Rosetta 2(DE3)pLysS, pPROEX HTb vector
applied_conditions: 1 μM compound, 100 nM 14-3-3σ, 8 h
reported_metric: % bound, APO, 8h (%)

# example entries with known answers
molecule="O=C(CCl)NCCCC1CCN(S(=O)(=O)c2ccc(Cl)cc2)CC1 [Compound 13]" assay_target="14-3-3σ (Homo sapiens)" reported_metric="% bound, APO, 8h" result=1.5
molecule="O=C(CCl)NCC1CCN(S(=O)(=O)Cc2ccc(Cl)cc2)CC1 [Compound 9]" assay_target="14-3-3σ (Homo sapiens)" reported_metric="% bound, APO, 8h" result=0
molecule="O=C(CCl)N1CC2(CC(NS(=O)(=O)c3ccc(Br)c(F)c3)CO2)C1 (stereo not drawn) [Compound 67]" assay_target="14-3-3σ (Homo sapiens)" reported_metric="% bound, APO, 8h" result=9.1

(a) COc1ccc(S(=O)(=O)N2CCC(CNC(=O)CCl)CC2)cc1 [Compound 25]
(b) O=C(CCl)N1CC2(CCN(S(=O)(=O)c3ccc(Br)c(F)c3)CC2(F)F)C1 [Compound 52]
Query: Lower % bound, APO, 8h: a or b ? Kindly give the label for the entry you pick.
Result: a
(a: 1.9%, b: 11.3%)

(1) O=C(CCl)NCC1CCN(S(=O)(=O)c2ccc(Cl)nc2)CC1 [Compound 14]
(2) N#Cc1ccc(S(=O)(=O)N2CCC(CNC(=O)CCl)CC2)cc1 [Compound 20]
(3) O=C(CCl)N1CC2(CC(NS(=O)(=O)c3ccc(Br)c(F)c3)C2)C1 [Compound 64]
(4) C=C(F)C(=O)N1CC2(CCN(S(=O)(=O)c3ccc(Br)c(F)c3)CC2(F)F)C1 [Compound 75]
(5) O=C(CCl)NCc1ccc(NS(=O)(=O)c2ccc(Br)c(F)c2)cc1 [Compound 73]
Query: Arrange these molecules by their % bound, APO, 8h, starting with the largest number. Kindly provide the labels arranged according to the requested ordering.
Result: 3, 1, 5, 2, 4

----------
assay_target: 14-3-3σ (Homo sapiens)
measurement_notes: Intact mass spectrometry assay, apo (no peptide)
Format: binding
Design: full-length for mass spectrometry and fluorescence anisotropy assays; made in house; host or cells: E. coli Rosetta 2(DE3)pLysS, pPROEX HTb vector
applied_conditions: 1 μM compound, 100 nM 14-3-3σ, 1 h
reported_metric: % bound, APO, 1h (%)

# example entries with known answers
molecule=O=C(CCl)NCC1CCN(S(=O)(=O)c2ccc(F)cc2)CC1 result=0
molecule=N#Cc1ccc(S(=O)(=O)N2CCC(CNC(=O)CCl)CC2)cc1 result=0
molecule="O=C(CCl)N1CC2CCC1CC2NS(=O)(=O)c1ccc(Br)c(F)c1 (stereo not shown)" result=5.2
molecule=O=C(CCl)NCC1CCN(S(=O)(=O)Cc2ccc(F)cc2)CC1 result=1
molecule="O=C(CCl)N1CC2(CC(NS(=O)(=O)c3ccc(Br)c(F)c3)CO2)C1 (stereo not shown)" result=2.9

(I) CC1(CNC(=O)CCl)CCN(S(=O)(=O)c2ccc(Br)c(F)c2)CC1
(II) O=C(CCl)NCC1CCN(S(=O)(=O)c2ccc(F)cc2F)CC1
(III) O=C(CCl)N1CC2(CCN(S(=O)(=O)c3ccc(Br)c(F)c3)CC2(F)F)C1
(IV) O=C(C(Cl)Cl)N1CC2(CCN(S(=O)(=O)c3ccc(Br)c(F)c3)CC2(F)F)C1
Query: Arrange these molecules by their % bound, APO, 1h, starting with the largest number. Kindly provide the labels arranged according to the requested ordering.
Result: III, II, I, IV
(III: 2.9%, II: 1%, I: 0.5%, IV: 0%)

(I) O=C(CCl)N1CC2CC1CN2S(=O)(=O)c1ccc(Br)c(F)c1 (stereo not shown)
(II) O=C(CCl)N1CC2(CCN(S(=O)(=O)c3ccc(Br)c(F)c3)CC2)C1
Query: Lower % bound, APO, 1h: I or II ? Kindly give the label for the entry you pick.
Result: II

(A) O=C(CCl)NCCCC1CCN(S(=O)(=O)c2ccc(Cl)cc2)CC1
(B) COc1ccc(S(=O)(=O)N2CCC(CNC(=O)CCl)CC2)cc1
Query: Lower % bound, APO, 1h: A or B ? Kindly give the label for the entry you pick.
Result: A
(A: 0%, B: 0.5%)

----------
assay_target: 14-3-3σ (Homo sapiens, UniProt P31947)
Sequence (P31947 1-248): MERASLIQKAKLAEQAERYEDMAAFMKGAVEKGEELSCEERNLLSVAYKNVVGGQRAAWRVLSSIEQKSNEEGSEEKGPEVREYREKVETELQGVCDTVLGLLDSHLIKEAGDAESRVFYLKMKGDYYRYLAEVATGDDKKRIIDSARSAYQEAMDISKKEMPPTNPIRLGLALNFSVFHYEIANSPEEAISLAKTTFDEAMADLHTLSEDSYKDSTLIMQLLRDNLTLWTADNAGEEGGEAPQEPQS
measurement_notes: Intact mass spectrometry assay, apo (no peptide)
Assay type: binding
Set-up: full-length for mass spectrometry and fluorescence anisotropy assays; made in house; host or cells: E. coli Rosetta 2(DE3)pLysS, pPROEX HTb vector
applied_conditions: 1 μM compound, 100 nM 14-3-3σ, 24 h
reported_metric: % bound, APO, 24h (%)

compound="O=C(CCl)NCc1ccc(NS(=O)(=O)c2ccc(Br)c(F)c2)cc1 [Compound 73]" reported_metric="% bound, APO, 24h" measurement_unit=% result=3.8
compound="O=C(CCl)N1CC2CCC1CC2NS(=O)(=O)c1ccc(Br)c(F)c1 (centres unmarked) [Compound 61]" reported_metric="% bound, APO, 24h" measurement_unit=% result=36.8
compound="O=C(CCl)NCC1CCN(S(=O)(=O)c2cc(F)c(Br)cc2F)CC1 [Compound 39]" reported_metric="% bound, APO, 24h" measurement_unit=% result=3.8

(A) O=C(CCl)NCC1CCN(S(=O)(=O)c2ccc(F)cc2F)CC1 [Compound 27]
(B) Cc1ccc(S(=O)(=O)N2CCC(CNC(=O)CCl)CC2)cc1 [Compound 24]
Query: # returns the entry with the larger % bound, APO, 24h; inputs A and B Kindly give the label for the entry you pick.
Result: A
(A: 5.2%, B: 1.5%)
